The reported measurements were obtained from patent US8378104B2.

- assay-system: TAK1-TAB1 fusion protein (Homo sapiens)
- Construct: purchased Carna
- assay-explanation: TAK1 biochemical assay (AlphaScreen, GST-MAP2K7 substrate)
- applied-conditions: TAK1-TAB1 fusion protein, GST-MAP2K7 substrate; read-out: mean TAK1 IC50 (Col. A)
pIC50: −log10 of the molar value. Counter-ions that a name gives are not always drawn.
observation-type: pIC50

compound: CNc1nc2cccc(-c3cc4c(-c5cnn([C@H]6CC[C@H](O)CC6)c5)cnc(N)c4o3)c2s1 [Example 351, Trifluoroacetate]
assay-system: TAK1-TAB1 fusion protein (Homo sapiens)
observation-type: pIC50
observed-result: > 7.00
//
compound: N#Cc1ccsc1-c1cnc(N)c2oc(-c3csc4cnccc34)cc12 [Example 383]
assay-system: TAK1-TAB1 fusion protein (Homo sapiens)
observation-type: pIC50
observed-result: < 5.00
//
compound: CC(=O)N1CCC(n2cc(-c3cnc(N)c4oc(-c5cccc(OCC6CCCCC6)c5)cc34)cn2)CC1 [Example 209]
assay-system: TAK1-TAB1 fusion protein (Homo sapiens)
observation-type: pIC50
observed-result: < 5.00

In the following, a different compound is considered.
Data request: Using the record for Nc1ncc(-c2cnn(C3CCN(C(=O)NCC4CCCCC4)CC3)c2)c2cc(-c3cccc4cnsc34)oc12 [Example 341] , report its pIC50.
Data returned: 6.00 to 7.00

###

Overview of reported IC50 across a group of compounds:
- Tested on: p-p38 in HCT-116 cells
- assay-explanation: Phospho-p38 Meso Scale ELISA assay, TNFα-stimulated HCT-116 cells
- Format: cell-based
- applied-conditions: Homo sapiens, read-out: mean HCT-116 p-p38 ELISA IC50 (Col. C)

Solved cases (2 shown):
compound: CC(C)(C)OC(=O)N1CCC(n2cc(-c3cnc(N)c4oc(-c5csc6cnccc56)cc34)cn2)CC1 [Example 300]
observed-result: 100 to 1000 nM
--
compound: CC(=O)N1CCC(n2cc(-c3cnc(N)c4oc(-c5cccn6ccnc56)cc34)cn2)CC1 [Example 221, bis(trifluoroacetate)]
observed-result: 100 to 1000 nM

Data request: Using the record for Nc1ncc(-c2cnn(C3CCOCC3)c2)c2cc(-c3cccc4cnccc34)oc12 [Example 74] , report its IC50.
Data returned: 1000 to 10000 nM

Data request: What about CC(=O)N1CCC(n2cc(-c3cnc(N)c4oc(-c5csc6ccccc56)cc34)cn2)CC1 [Example 219] ?
Data returned: 100 to 1000 nM

Data request: What about Nc1ncc(-c2cnn(C[C@@H](O)CO)c2)c2cc(-c3csc4cnccc34)oc12 [Example 317] ?
Data returned: 1000 to 10000 nM

###

- assay-system: TAK1-TAB1 fusion protein (Homo sapiens)
- Construct: purchased Carna
- Sequence (O43318 with tags, fused parts or gaps limits assumed): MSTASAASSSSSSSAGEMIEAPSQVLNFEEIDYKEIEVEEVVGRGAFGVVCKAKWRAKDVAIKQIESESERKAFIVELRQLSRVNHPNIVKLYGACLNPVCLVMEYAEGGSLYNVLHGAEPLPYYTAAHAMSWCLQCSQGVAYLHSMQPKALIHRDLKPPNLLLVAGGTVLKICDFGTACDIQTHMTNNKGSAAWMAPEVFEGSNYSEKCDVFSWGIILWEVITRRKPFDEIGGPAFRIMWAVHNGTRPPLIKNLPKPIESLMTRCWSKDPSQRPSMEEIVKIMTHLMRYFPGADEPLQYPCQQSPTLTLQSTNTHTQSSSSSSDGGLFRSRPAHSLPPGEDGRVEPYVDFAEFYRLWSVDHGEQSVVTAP
- assay-explanation: TAK1 biochemical assay (AlphaScreen, GST-MAP2K7 substrate)
- applied-conditions: TAK1-TAB1 fusion protein, GST-MAP2K7 substrate; read-out: mean TAK1 IC50 (Col. A)
observation-type: IC50

Solved cases (8 shown):
molecule: CC(=O)N1CCC(n2cc(-c3cnc(N)c4oc(-c5csc6cncnc56)cc34)cn2)CC1 [Example 260]
observed-result: 0.1 to 1 µM

molecule: Nc1ncc(-c2cnn([C@H]3CC[C@H](O)CC3)c2)c2cc(-c3c(F)ccc4ncsc34)oc12 [Example 359]
observed-result: 1 to 10 µM

molecule: Nc1ncc(-c2cnn(C3CCNCC3)c2)c2cc(-c3ccc4[nH]cnc4c3)oc12 [Example 39]
observed-result: 0.1 to 1 µM

molecule: CC(=O)N1CCC(n2cc(-c3cnc(N)c4oc(-c5cnn(Cc6cccnc6)c5)cc34)cn2)CC1 [Example 148]
observed-result: 1 to 10 µM

molecule: CC(=O)N1CCC(n2cc(-c3cnc(N)c4oc(-c5cccc([N+](=O)[O-])c5)cc34)cn2)CC1 [Example 112]
observed-result: < 0.1 µM

molecule: Nc1ncc(-c2cnn(CCO)c2)c2cc(-c3csc4cnccc34)oc12 [Example 319]
observed-result: 0.1 to 1 µM

molecule: Nc1ncc(-c2cnn([C@H]3CC[C@H](O)CC3)c2)c2cc(-c3cccc4ncccc34)oc12 [Example 235]
observed-result: 1 to 10 µM

molecule: C[C@]1(O)CC[C@@H](n2cc(-c3cnc(N)c4oc(-c5cccc6cnccc56)cc34)cn2)CC1 [Example 76]
observed-result: 0.1 to 1 µM

In the following, a different molecule is considered.
Data request: Using the record for Nc1ncc(-c2cnn(C3CCN(C(=O)CCN4CCCCC4)CC3)c2)c2cc(-c3csc4cnccc34)oc12 [Example 332] , report its IC50.
Data returned: < 0.1 µM
